# tested target: T1, La/SSB N-terminal domain (La-NTD) (human, UniProt P05455)
# T1 chain: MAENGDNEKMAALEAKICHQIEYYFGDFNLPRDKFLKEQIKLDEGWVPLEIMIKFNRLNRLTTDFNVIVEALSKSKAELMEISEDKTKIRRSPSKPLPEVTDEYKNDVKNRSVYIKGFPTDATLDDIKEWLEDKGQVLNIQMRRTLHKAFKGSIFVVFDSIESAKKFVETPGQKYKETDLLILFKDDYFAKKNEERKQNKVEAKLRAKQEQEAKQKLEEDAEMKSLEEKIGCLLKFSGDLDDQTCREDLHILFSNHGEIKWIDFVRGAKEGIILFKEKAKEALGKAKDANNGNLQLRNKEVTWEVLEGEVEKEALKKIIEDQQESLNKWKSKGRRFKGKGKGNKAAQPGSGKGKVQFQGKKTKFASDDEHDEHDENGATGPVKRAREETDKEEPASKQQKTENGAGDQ
# assay info: SPR
pKd: −log10 of the molar value.
# Lookup of reported pKd keyed by entry
assay endpoint: pKd

VH3/VK6_K322A (antibody, V domains shown) VH: EVQLVQSGAEVKKPGASVKVSCKASGYAFTHYYIYWIRQAPGQGLEWMGGVNPSSGGTHYAEKFQGRVTLTVDTSSSTAYMELSSLRSEDTAVYYCTRSEYDYGLGFAYWGQGTLVTVSS VL: DIVMTQSPLSLPVTPGEPASISCRSSQSLLSSRTPKNYLAWYQQKPGQSPQLLIYWASTRKSGVPDRFSGSGSGTDFTLKISRVEAEDVGVYYCKQSYNLLTFGQGTKLEIK = 7.87
VH6/VK8_K322A (antibody, V domains shown) VH: EVQLVQSGAEVKKPGASVKVSCKASGYAFTHYYIYWIKQAPGQGLEWIGGVNPSNGGTHFNEKFKSRVTITVDKSASTAYMELSSLRSEDTAVYYCTRSEYDYGLGFAYWGQGTLVTVSS VL: EIVMTQSPDSLAVSLGERATINCKSSQSLLNSRTPKNYLAWYQQKPGQPPKLLIYWASTRESGVPDRFTGSGSGTDFTLTISSLQAEDVAVYYCKQSYNLLTFGQGTKLEIK = 7.84
VH3/VK6_K322A_RadMab (antibody, V domains shown) VH: EVQLVQSGAEVKKPGASVKVSCKASGYAFTHYYIYWIRQAPGQGLEWMGGVNPSSGGTHYAEKFQGRVTLTVDTSSSTAYMELSSLRSEDTAVYYCTRSEYDYGLGFAYWGQGTLVTVSS VL: DIVMTQSPLSLPVTPGEPASISCRSSQSLLSSRTPKNYLAWYQQKPGQSPQLLIYWASTRKSGVPDRFSGSGSGTDFTLKISRVEAEDVGVYYCKQSYNLLTFGQGTKLEIKR = 8.08
VH6/VK8_K322A_RadMab (antibody, V domains shown) VH: EVQLVQSGAEVKKPGASVKVSCKASGYAFTHYYIYWIKQAPGQGLEWIGGVNPSNGGTHFNEKFKSRVTITVDKSASTAYMELSSLRSEDTAVYYCTRSEYDYGLGFAYWGQGTLVTVSS VL: EIVMTQSPDSLAVSLGERATINCKSSQSLLNSRTPKNYLAWYQQKPGQPPKLLIYWASTRESGVPDRFTGSGSGTDFTLTISSLQAEDVAVYYCKQSYNLLTFGQGTKLEIKR = 8.06
chAPOMAB_VH0/VK0_K322A (antibody, V domains shown) VH: EVQLQQPGAELVKPGASVKLSCKASGYAFTHYYIYWIKQRPGQGLEWIGGVNPSNGGTHFNEKFKSKATLTVDKSSSTAYMQLSSLTSEDSAVYYCTRSEYDYGLGFAYWGQGTLLTVSS VL: EIVMSQSPSSLAVSAGEKVTMSCKSSQSLLNSRTPKNYLAWYQQKPGQSPKLLIYWASTRKSGVPDRFTGSGSGTDFTLTISSVQAEDLAVYYCKQSYNLLTFGAGTKLEL = 7.74
